Examples of variants with documented abundance fitness follow.
B1: SAM and SH3 domain-containing protein 1, residues 630 to 700; numbered along this chain, O94885 (parent)
chain: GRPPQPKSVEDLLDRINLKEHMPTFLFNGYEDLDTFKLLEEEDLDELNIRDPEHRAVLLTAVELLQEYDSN

- Variants of: B1
- assay overview: abundance fitness (aPCA) (normalised: wild type 0, dead -1); higher = more abundant; growth selection in yeast, the domain comes from the species named
- experimental parameters: Homo sapiens
Lab note: jot down the number only; don't add units.

Example variants with recorded abundance fitness:
[[record]]
mutation = "G29L"
result_number = -0.907

[[record]]
mutation = "Q5G"
result_number = -0.694

[[record]]
mutation = "H54G"
result_number = -0.832

[[record]]
mutation = "P52Y"
result_number = -1.02

[[record]]
mutation = "G1E"
result_number = 0.166


Q: Looking for the measured abundance fitness of Q66K , can you help?
Ans: 0.267
